System: UO-31 renal
Assay: NCI tumour cell line growth inhibition, 48 h
Observation type: GI50

Example entries begin here.
CCCCCCOc1ccc(C(=N)N(CCCC)CCCC)c2ccccc12
1140 nM
Nc1ncnc2c1c(-c1ccc(Oc3ccccc3)cc1)nn2C[C@@H]1SSC[C@@H]1O
1540 nM
C=C(CNCCc1ccc(O)cc1)[C@@H]1CC[C@]2(CO)CC[C@]3(C)[C@H](CC[C@@H]4[C@@]5(C)CCC(N)C(C)(C)[C@@H]5CC[C@]43C)[C@@H]12 (some centres undefined)
1420 nM

Challenge: Quick one: GI50 for CCCn1cnc2c(SCc3ccccc3)nc(N)nc21 ?
Response given: 67700 nM

Challenge: What would you report for O=C(Cc1ccc(/C=C/C(=O)c2ncc[nH]2)cc1)Nc1ccc(C(F)(F)F)cc1 ?
Response given: 2430 nM
